// provenance: PubChem BioAssay AID504383

# studySystem: Troponin I, cardiac muscle (Homo sapiens) + Troponin T, cardiac muscle (Homo sapiens) + Troponin C, slow skeletal and cardiac muscles (Homo sapiens) (UniProt P19429+P45379+P63316)
# protocolText: cardiac RTF calcium sensitivity activators, confirmation, biochemical, IANBD-TnC fluorescence, triplicate (AID 504383);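 note: 0% = DMSO at 0.472 mM calcium and 100% = DMSO at 2.9 mM calcium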
# conditionInfo: IANBD-labeled cardiac RTF, Ca2+ sensitivity fluorescence; at 7.2 µM; active compounds read high; scaled from EC20 to saturating calcium; tested at EC20 calcium, 0.472 mM
The campaign covered roughly 2,500 compounds. About 1,200 (48%) were called active. So high a share suggests a set chosen from earlier hits. The list shows a part of the results.
reportedMetric: activation (%)
Numbers only; they are read as %.

Before answering, review these 3 worked examples.
Enquiry: Reported activation for O=C(O)c1ccccc1-c1ccc(/C=C/c2cc(C(F)(F)F)[nH]c(=O)n2)o1 : what is it?
Return: 8.85

Enquiry: Reported activation for COC(=O)CCc1c(C)c(C(=O)c2cc(F)c(F)c(F)c2F)c2ccccn12 : what is it?
Return: -2.54

Enquiry: Reported activation for O=C(O)c1cc(Cl)ccc1-c1ccc(/C=C/c2cc(C(F)(F)F)[nH]c(=O)n2)o1 : what is it?
Return: 56.3

Next:
Enquiry: Reported activation for O=C(Nc1ccccc1)NC1CS(=O)(=O)CC1O (stereo unspecified) : what is it?
Return: 149

Enquiry: Reported activation for Cc1cc(/C=C2\SC(=S)N(C)C2=O)c(C)n1-c1ccccc1O : what is it?
Return: 33

Enquiry: Reported activation for COc1ccc(-n2c(C)cc(/C=C3\SC(=S)NC3=O)c2C)cc1 : what is it?
Return: 8.15

Enquiry: Reported activation for Cc1c(O)ccc(/C(Cc2ccc3ccccc3n2)=N\N)c1O : what is it?
Return: 9.3

Enquiry: Reported activation for CC1=C(C(=O)N(C)C)C(c2ccc(C)s2)NC(=S)N1 (stereo unspecified) : what is it?
Return: 0.74

Enquiry: Reported activation for O=C(Nc1ccccc1)C1CC2CCCC(C1)C2=O (stereo unspecified) : what is it?
Return: 8.65

Enquiry: Reported activation for c1ccc(-c2nc(-c3ccco3)n3ccccc23)cc1 : what is it?
Return: 1.15

Enquiry: Reported activation for CC1=C(C(=O)OCCCCCl)C(c2cc3c(cc2Br)OCO3)NC(=O)N1 (stereo unspecified) : what is it?
Return: 7.44
